B1: 6NMW (parent)
chain: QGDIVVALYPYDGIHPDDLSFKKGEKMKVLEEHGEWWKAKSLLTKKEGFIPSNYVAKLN

- Variants of: B1
- ASSAY_PROTOCOL: folding stability dG (cDNA display proteolysis); higher = more stable
- RUN_PARAMETERS: PBS, room temperature
MEASUREMENT_TYPE: folding stability dG (kcal/mol)
Note: unit kcal/mol is implicit; provide only the numeric part.

These recorded examples may help you get a feel for the data.
> print(dat)
   mutation.code  value.units  value.reported
1           S52R     kcal/mol            4.29
2           N53F     kcal/mol            3.06
3           A39C     kcal/mol            4.07
4           V29M     kcal/mol            1.93

For the next question, use this variant.
Request: Please look up its folding stability dG: "A39L"
Result: 1.97
